B1: MMP1 (parent)
chain: FHGTRQYKFDPKTKRILTLQKANS

# Variants of: B1
# protocol-summary: protein stability index of a GFP-peptide fusion (GPS, HEK-293T) (PSI 1-6); higher = more stable;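 also: lentivirally expressed fusions sorted by FACS into six bins by GFP to DsRed ratio, PSI derived from sequencing read proportions per bin multiplied by bin number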
# experimental-conditions: c terminus: a fixed tail appended
Recorded measurements of protein stability index, one per entry
readout: protein stability index

- mutation-annotation: "L19P"
  reported: 1.87
- mutation-annotation: "N23F"
  reported: 1.25
- mutation-annotation: "K8I"
  reported: 2.49
- mutation-annotation: "N23V"
  reported: 2.08
- mutation-annotation: "K12W"
  reported: 3.25
- mutation-annotation: "P11M"
  reported: 1.83
- mutation-annotation: "K14P"
  reported: 2.1
- mutation-annotation: "P11C"
  reported: 1.79
- mutation-annotation: "L19A"
  reported: 1.54
- mutation-annotation: "F1M"
  reported: 3.13
- mutation-annotation: "K12E"
  reported: 2.4
- mutation-annotation: "L19C"
  reported: 1.63
- mutation-annotation: "Q6M"
  reported: 1.82
- mutation-annotation: "Q20C"
  reported: 2.16
- mutation-annotation: "T18P"
  reported: 2.18
- mutation-annotation: "K14T"
  reported: 1.61
- mutation-annotation: "A22G"
  reported: 1.73
- mutation-annotation: "L17M"
  reported: 1.53
- mutation-annotation: "F9D"
  reported: 2.27
- mutation-annotation: "F9P"
  reported: 2.13
- mutation-annotation: "R5A"
  reported: 1.8
- mutation-annotation: "D10M"
  reported: 2.18
- mutation-annotation: "R5T"
  reported: 1.68
- mutation-annotation: "F1W"
  reported: 2.35
- mutation-annotation: "D10K"
  reported: 1.83
- mutation-annotation: "P11L"
  reported: 1.52
- mutation-annotation: "K8G"
  reported: 2.24
- mutation-annotation: "P11N"
  reported: 1.93
- mutation-annotation: "F9A"
  reported: 1.74
- mutation-annotation: "Y7N"
  reported: 2.46
- mutation-annotation: "D10P"
  reported: 1.72
- mutation-annotation: "K14H"
  reported: 1.54
- mutation-annotation: "R15C"
  reported: 1.28
- mutation-annotation: "F1K"
  reported: 3.33
- mutation-annotation: "R15N"
  reported: 1.73
- mutation-annotation: "D10Q"
  reported: 2.46
- mutation-annotation: "F9Y"
  reported: 1.75
- mutation-annotation: "Y7M"
  reported: 1.72
- mutation-annotation: "Q6P"
  reported: 1.46
- mutation-annotation: "N23Y"
  reported: 2.1
- mutation-annotation: "P11K"
  reported: 1.83
- mutation-annotation: "D10V"
  reported: 1.42
- mutation-annotation: "Y7S"
  reported: 2.74
- mutation-annotation: "F9K"
  reported: 2.17
- mutation-annotation: "Q6I"
  reported: 2.39
- mutation-annotation: "N23D"
  reported: 2.46
- mutation-annotation: "G3W"
  reported: 2.02
- mutation-annotation: "F9C"
  reported: 2.48
- mutation-annotation: "K12M"
  reported: 1.7
- mutation-annotation: "K14D"
  reported: 2.19
- mutation-annotation: "Y7G"
  reported: 1.77
- mutation-annotation: "K21M"
  reported: 1.54
- mutation-annotation: "D10W"
  reported: 1.77
- mutation-annotation: "T4F"
  reported: 3.12
- mutation-annotation: "F1E"
  reported: 3.91
- mutation-annotation: "A22W"
  reported: 1.6
- mutation-annotation: "S24N"
  reported: 2.16
- mutation-annotation: "R15Q"
  reported: 2.16
- mutation-annotation: "R15D"
  reported: 1.86
- mutation-annotation: "L17W"
  reported: 1.88
- mutation-annotation: "R15V"
  reported: 1.77
- mutation-annotation: "Y7W"
  reported: 3.02
- mutation-annotation: "K21Y"
  reported: 2.43
- mutation-annotation: "T4S"
  reported: 2.08
- mutation-annotation: "R15P"
  reported: 2.29
- mutation-annotation: "L17A"
  reported: 1.92
- mutation-annotation: "F9N"
  reported: 2.39
- mutation-annotation: "K14V"
  reported: 2.53
- mutation-annotation: "T13Y"
  reported: 1.65
- mutation-annotation: "I16P"
  reported: 1.93
- mutation-annotation: "Q6N"
  reported: 1.92
- mutation-annotation: "T18C"
  reported: 1.55
- mutation-annotation: "K8R"
  reported: 2.65
- mutation-annotation: "L17I"
  reported: 1.78
- mutation-annotation: "T13K"
  reported: 2
- mutation-annotation: "K21H"
  reported: 2.33
- mutation-annotation: "K21F"
  reported: 2.14
- mutation-annotation: "T18I"
  reported: 1.61
- mutation-annotation: "R15F"
  reported: 1.3
- mutation-annotation: "P11W"
  reported: 2.19
- mutation-annotation: "R5Y"
  reported: 2.13
- mutation-annotation: "T18V"
  reported: 1.04
- mutation-annotation: "D10H"
  reported: 1.95
- mutation-annotation: "K14G"
  reported: 1.54
- mutation-annotation: "T13G"
  reported: 1.62
- mutation-annotation: "T4W"
  reported: 3.19
- mutation-annotation: "G3F"
  reported: 1.58
- mutation-annotation: "G3M"
  reported: 1.78
- mutation-annotation: "K8W"
  reported: 3.37
- mutation-annotation: "N23M"
  reported: 1.8
- mutation-annotation: "I16R"
  reported: 1.36
